Entry source: the supplement of paper PMC10307832

System: H3255
method.notes: relative viability (nuclei count vs DMSO), 5 days (fraction); higher = more cells survive
settings: first compound 0.6325 µM
recorded.endpoint: relative viability

[[record]]
molecule = "Cc1csc(=NC2CCCCC2)n1/N=C/c1ccc(O)c(O)c1O [MIM1] + CS(=O)(=O)CCNCc1ccc(-c2ccc3ncnc(Nc4ccc(OCc5cccc(F)c5)c(Cl)c4)c3c2)o1 [Lapatinib] (partner 2 µM)"
recorded_endpoint = "relative viability"
measured = 0.208

[[record]]
molecule = "Cc1csc(=NC2CCCCC2)n1/N=C/c1ccc(O)c(O)c1O [MIM1] + C[C@]1(O)C[C@@H](c2nc(-c3ccc4ccc(-c5ccccc5)nc4c3)c3c(N)nccn32)C1 [Linsitinib] (partner 1 µM)"
recorded_endpoint = "relative viability"
measured = 0.918

[[record]]
molecule = "CN1CCN(CCOc2cc(OC3CCOCC3)c3c(Nc4c(Cl)ccc5c4OCO5)ncnc3c2)CC1 [Saracatinib] + Nc1nc2[nH]cc(CCc3ccc(C(=O)N[C@@H](CCC(=O)O)C(=O)O)cc3)c2c(=O)[nH]1 [Pemetrexed] (partner 0.2 µM)"
recorded_endpoint = "relative viability"
measured = 0.521

[[record]]
molecule = "CN1CCN(CCOc2cc(OC3CCOCC3)c3c(Nc4c(Cl)ccc5c4OCO5)ncnc3c2)CC1 [Saracatinib] + C[C@]1(O)C[C@@H](c2nc(-c3ccc4ccc(-c5ccccc5)nc4c3)c3c(N)nccn32)C1 [Linsitinib] (partner 1 µM)"
recorded_endpoint = "relative viability"
measured = 0.647

[[record]]
molecule = "CN1CCN(CCOc2cc(OC3CCOCC3)c3c(Nc4c(Cl)ccc5c4OCO5)ncnc3c2)CC1 [Saracatinib] + COc1cccc2cc(-c3nc([C@H]4CC[C@H](C(=O)O)CC4)n4ncnc(N)c34)[nH]c12 [OSI-027] (partner 0.5 µM)"
recorded_endpoint = "relative viability"
measured = 0.542

[[record]]
molecule = "Cc1csc(=NC2CCCCC2)n1/N=C/c1ccc(O)c(O)c1O [MIM1] + NC(=O)Nc1cc(-c2cccc(F)c2)sc1C(=O)N[C@H]1CCCNC1 [AZD7762] (partner 0.2 µM)"
recorded_endpoint = "relative viability"
measured = 0.85


###

System: HARA
method.notes: relative viability (nuclei count vs DMSO), 5 days (fraction); higher = more cells survive
settings: first compound 0.02 µM
Known relative viability of a selection of molecules
recorded.endpoint: relative viability

[[record]]
molecule = "CN1CCN(CCOc2cc(OC3CCOCC3)c3c(Nc4c(Cl)ccc5c4OCO5)ncnc3c2)CC1 [Saracatinib] + COc1cccc2cc(-c3nc([C@H]4CC[C@H](C(=O)O)CC4)n4ncnc(N)c34)[nH]c12 [OSI-027] (partner 0.5 µM)"
target_system = "HARA"
measured = 0.544

[[record]]
molecule = "CCNC(=O)c1noc(-c2cc(C(C)C)c(O)cc2O)c1-c1ccc(CN2CCOCC2)cc1 [Luminespib] + COc1cc2c(Oc3ccc(NC(=O)C4(C(=O)Nc5ccc(F)cc5)CC4)cc3F)ccnc2cc1OCCCN1CCOCC1 [Foretinib] (partner 0.25 µM)"
target_system = "HARA"
measured = 1.08

[[record]]
molecule = "CN1CCN(CCOc2cc(OC3CCOCC3)c3c(Nc4c(Cl)ccc5c4OCO5)ncnc3c2)CC1 [Saracatinib] + CCNC(=O)c1noc(-c2cc(C(C)C)c(O)cc2O)c1-c1ccc(CN2CCOCC2)cc1 [Luminespib] (partner 0.01 µM)"
target_system = "HARA"
measured = 0.686

[[record]]
molecule = "CCNC(=O)c1noc(-c2cc(C(C)C)c(O)cc2O)c1-c1ccc(CN2CCOCC2)cc1 [Luminespib] + CC(=O)Nc1cccc(-n2c(=O)n(C3CC3)c(=O)c3c(Nc4ccc(I)cc4F)n(C)c(=O)c(C)c32)c1 [Trametinib] (partner 0.02 µM)"
target_system = "HARA"
measured = 0.471

[[record]]
molecule = "CN1CCN(CCOc2cc(OC3CCOCC3)c3c(Nc4c(Cl)ccc5c4OCO5)ncnc3c2)CC1 [Saracatinib] + CC(=O)c1c(C)c2cnc(Nc3ccc(N4CCNCC4)cn3)nc2n(C2CCCC2)c1=O [Palbociclib] (partner 0.5 µM)"
target_system = "HARA"
measured = 0.234

[[record]]
molecule = "CN1CCN(CCOc2cc(OC3CCOCC3)c3c(Nc4c(Cl)ccc5c4OCO5)ncnc3c2)CC1 [Saracatinib] + CS(=O)(=O)N1CCN(Cc2cc3nc(-c4cccc5[nH]ncc45)nc(N4CCOCC4)c3s2)CC1 [Pictilisib] (partner 1 µM)"
target_system = "HARA"
measured = 0.37

[[record]]
molecule = "CN1CCN(CCOc2cc(OC3CCOCC3)c3c(Nc4c(Cl)ccc5c4OCO5)ncnc3c2)CC1 [Saracatinib] + Nc1nc2[nH]cc(CCc3ccc(C(=O)N[C@@H](CCC(=O)O)C(=O)O)cc3)c2c(=O)[nH]1 [Pemetrexed] (partner 0.2 µM)"
target_system = "HARA"
measured = 0.268

[[record]]
molecule = "CN1CCN(CCOc2cc(OC3CCOCC3)c3c(Nc4c(Cl)ccc5c4OCO5)ncnc3c2)CC1 [Saracatinib] + Cc1cc(Nc2cc(N3CCN(C)CC3)nc(Sc3ccc(NC(=O)C4CC4)cc3)n2)n[nH]1 [Tozasertib] (partner 0.1 µM)"
target_system = "HARA"
measured = 0.118


###

Known relative viability of a selection of compounds
System: EMC-BAC-2
method.notes: relative viability (nuclei count vs DMSO), 5 days (fraction); higher = more cells survive
settings: first compound 0.01 µM
recorded.endpoint: relative viability

[[record]]
compound = "Cc1cn(-c2cc(NC(=O)c3ccc(C)c(Nc4nccc(-c5cccnc5)n4)c3)cc(C(F)(F)F)c2)cn1 [Nilotinib] + CCNC(=O)c1noc(-c2cc(C(C)C)c(O)cc2O)c1-c1ccc(CN2CCOCC2)cc1 [Luminespib] (partner 0.01 µM)"
measured = 1.22

[[record]]
compound = "Cc1cn(-c2cc(NC(=O)c3ccc(C)c(Nc4nccc(-c5cccnc5)n4)c3)cc(C(F)(F)F)c2)cn1 [Nilotinib] + O=C(c1cc(Cc2n[nH]c(=O)c3ccccc23)ccc1F)N1CCN(C(=O)C2CC2)CC1 [Olaparib] (partner 8 µM)"
measured = 0.49

[[record]]
compound = "Cc1cn(-c2cc(NC(=O)c3ccc(C)c(Nc4nccc(-c5cccnc5)n4)c3)cc(C(F)(F)F)c2)cn1 [Nilotinib] + CS(=O)(=O)N1CCN(Cc2cc3nc(-c4cccc5[nH]ncc45)nc(N4CCOCC4)c3s2)CC1 [Pictilisib] (partner 1 µM)"
measured = 0.606

[[record]]
compound = "Cc1cn(-c2cc(NC(=O)c3ccc(C)c(Nc4nccc(-c5cccnc5)n4)c3)cc(C(F)(F)F)c2)cn1 [Nilotinib] + CC(=O)c1c(C)c2cnc(Nc3ccc(N4CCNCC4)cn3)nc2n(C2CCCC2)c1=O [Palbociclib] (partner 0.5 µM)"
measured = 0.481

[[record]]
compound = "Cc1cn(-c2cc(NC(=O)c3ccc(C)c(Nc4nccc(-c5cccnc5)n4)c3)cc(C(F)(F)F)c2)cn1 [Nilotinib] + Cc1nc(NC(=O)N2CCC[C@H]2C(N)=O)sc1-c1ccnc(C(C)(C)C(F)(F)F)c1 [Alpelisib] (partner 2 µM)"
measured = 0.883

[[record]]
compound = "Cc1cn(-c2cc(NC(=O)c3ccc(C)c(Nc4nccc(-c5cccnc5)n4)c3)cc(C(F)(F)F)c2)cn1 [Nilotinib] + CC(=O)Nc1cccc(-n2c(=O)n(C3CC3)c(=O)c3c(Nc4ccc(I)cc4F)n(C)c(=O)c(C)c32)c1 [Trametinib] (partner 0.02 µM)"
measured = 0.849

[[record]]
compound = "Cc1cn(-c2cc(NC(=O)c3ccc(C)c(Nc4nccc(-c5cccnc5)n4)c3)cc(C(F)(F)F)c2)cn1 [Nilotinib] + Nc1ncn([C@H]2C[C@H](O)[C@@H](CO)O2)c(=O)n1 [Decitabine] (partner 2 µM)"
measured = 1.02


###

System: EMC-BAC-2
method.notes: relative viability (nuclei count vs DMSO), 5 days (fraction); higher = more cells survive
settings: first compound 0.6325 µM
Known relative viability of a selection of compounds
recorded.endpoint: relative viability

[[record]]
compound = "CN1CCN(CCOc2cc(OC3CCOCC3)c3c(Nc4c(Cl)ccc5c4OCO5)ncnc3c2)CC1 [Saracatinib] + CC1(C)CCC(c2ccc(Cl)cc2)=C(CN2CCN(c3ccc(C(=O)NS(=O)(=O)c4ccc(N[C@H](CCN5CCOCC5)CSc5ccccc5)c(S(=O)(=O)C(F)(F)F)c4)cc3)CC2)C1 [Navitoclax] (partner 0.5 µM)"
measured = 1.15

[[record]]
compound = "CN1CCN(CCOc2cc(OC3CCOCC3)c3c(Nc4c(Cl)ccc5c4OCO5)ncnc3c2)CC1 [Saracatinib] + C[C@@H](Oc1cc(-c2cnn(C3CCNCC3)c2)cnc1N)c1c(Cl)ccc(F)c1Cl [Crizotinib] (partner 1 µM)"
measured = 0.652

[[record]]
compound = "CN1CCN(CCOc2cc(OC3CCOCC3)c3c(Nc4c(Cl)ccc5c4OCO5)ncnc3c2)CC1 [Saracatinib] + Nc1ncn([C@H]2C[C@H](O)[C@@H](CO)O2)c(=O)n1 [Decitabine] (partner 2 µM)"
measured = 1.02

[[record]]
compound = "CN1CCN(CCOc2cc(OC3CCOCC3)c3c(Nc4c(Cl)ccc5c4OCO5)ncnc3c2)CC1 [Saracatinib] + CS(=O)(=O)N1CCN(Cc2cc3nc(-c4cccc5[nH]ncc45)nc(N4CCOCC4)c3s2)CC1 [Pictilisib] (partner 1 µM)"
measured = 0.497

[[record]]
compound = "CN1CCN(CCOc2cc(OC3CCOCC3)c3c(Nc4c(Cl)ccc5c4OCO5)ncnc3c2)CC1 [Saracatinib] + O=C(CCCCCCC(=O)Nc1ccccc1)NO [Vorinostat] (partner 1 µM)"
measured = 0.417

[[record]]
compound = "CN1CCN(CCOc2cc(OC3CCOCC3)c3c(Nc4c(Cl)ccc5c4OCO5)ncnc3c2)CC1 [Saracatinib] + Cc1nc(Nc2ncc(C(=O)Nc3c(C)cccc3Cl)s2)cc(N2CCN(CCO)CC2)n1 [Dasatinib] (partner 0.075 µM)"
measured = 0.324

[[record]]
compound = "CN1CCN(CCOc2cc(OC3CCOCC3)c3c(Nc4c(Cl)ccc5c4OCO5)ncnc3c2)CC1 [Saracatinib] + N=C(N)NC(=N)NCCc1ccccc1 [Phenformin] (partner 250 µM)"
measured = 0.418

[[record]]
compound = "CN1CCN(CCOc2cc(OC3CCOCC3)c3c(Nc4c(Cl)ccc5c4OCO5)ncnc3c2)CC1 [Saracatinib] + COc1cc2c(Oc3ccc(NC(=O)C4(C(=O)Nc5ccc(F)cc5)CC4)cc3F)ccnc2cc1OCCCN1CCOCC1 [Foretinib] (partner 0.25 µM)"
measured = 1.01

[[record]]
compound = "Cc1csc(=NC2CCCCC2)n1/N=C/c1ccc(O)c(O)c1O [MIM1] + O=C(CCCCCCC(=O)Nc1ccccc1)NO [Vorinostat] (partner 1 µM)"
measured = 0.302

[[record]]
compound = "Cc1csc(=NC2CCCCC2)n1/N=C/c1ccc(O)c(O)c1O [MIM1] + CC(=O)Nc1cccc(-n2c(=O)n(C3CC3)c(=O)c3c(Nc4ccc(I)cc4F)n(C)c(=O)c(C)c32)c1 [Trametinib] (partner 0.02 µM)"
measured = 0.799

[[record]]
compound = "Cc1csc(=NC2CCCCC2)n1/N=C/c1ccc(O)c(O)c1O [MIM1] + NC(=O)Nc1cc(-c2cccc(F)c2)sc1C(=O)N[C@H]1CCCNC1 [AZD7762] (partner 0.2 µM)"
measured = 0.776

[[record]]
compound = "CN1CCN(CCOc2cc(OC3CCOCC3)c3c(Nc4c(Cl)ccc5c4OCO5)ncnc3c2)CC1 [Saracatinib] + CCNC(=O)c1noc(-c2cc(C(C)C)c(O)cc2O)c1-c1ccc(CN2CCOCC2)cc1 [Luminespib] (partner 0.01 µM)"
measured = 1.16

